Molecular target: T1, human neuropeptide Y2 receptor (human, UniProt P49146 1-381)
T1 sequence (looked up): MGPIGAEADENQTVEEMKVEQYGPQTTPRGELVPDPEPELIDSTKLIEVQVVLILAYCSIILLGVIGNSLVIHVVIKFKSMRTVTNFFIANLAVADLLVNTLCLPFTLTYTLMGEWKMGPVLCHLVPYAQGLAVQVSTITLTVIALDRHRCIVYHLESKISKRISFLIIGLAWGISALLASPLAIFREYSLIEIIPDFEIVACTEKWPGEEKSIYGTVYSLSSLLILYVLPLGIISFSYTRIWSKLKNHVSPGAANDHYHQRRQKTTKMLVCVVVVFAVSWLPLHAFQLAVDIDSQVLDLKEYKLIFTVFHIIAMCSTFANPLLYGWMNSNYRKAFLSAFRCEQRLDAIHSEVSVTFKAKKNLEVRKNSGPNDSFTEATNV
Assay: cell-based or functional assay
Starred links: 1 amine or outer side, 2 acyl side, 3 side chain; linkers in the order of their positions; H or OH if unused. Non-standard residues stand in square brackets, D forms with d. Groups on a side chain read outwards from the residue. No end group written: not given here. *: point of attachment. C20 diacid = O=C(O)CCCCCCCCCCCCCCCCCCC(=O)*; γGlu = O=C(O)[C@H](CCC(=O)[*:2])N[*:1]; εLys = N[C@@H](CCCCN[*:1])C(=O)[*:2]; AEEA = NCCOCCOCC(=O)O; Aib = CC(C)(N)C(=O)O
METRIC: EC50 CreLuc hNPY2R 0.5% hP (nM)

BINDER	METRIC	READOUT NUMBER
YXEGTFTSDYSIXLEEQAQXAFVEWLIKGGPSSGASLRHYYNWLTRQRY (Aib at 2, 13, 20; K28 side chain: C20DA-gGlu-gGlu-gGlu-gGlu-gGlu-gGlu-eLys; C-terminal NH2) [Compound 116]	EC50 CreLuc hNPY2R 0.5% hP	13.5
Y[Aib]EGTFTSDYSI[Aib]LEEQAQ[Aib]AFVEWLIK([εLys-AEEA-γGlu-γGlu-γGlu-γGlu-γGlu-C20 diacid])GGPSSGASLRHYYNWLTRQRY-NH2 [Compound 110]	EC50 CreLuc hNPY2R 0.5% hP	17.5
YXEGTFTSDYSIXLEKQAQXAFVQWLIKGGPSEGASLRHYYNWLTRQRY (Aib at 2, 13, 20; NMeQ at 47; K28 side chain: C20DA-gGlu-gGlu-gGlu-gGlu-gGlu-gGlu-eLys; C-terminal NH2) [Compound 115]	EC50 CreLuc hNPY2R 0.5% hP	7.8
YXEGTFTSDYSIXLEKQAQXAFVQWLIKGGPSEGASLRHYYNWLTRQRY (Aib at 2, 13, 20; NMeR at 48; K28 side chain: C20DA-gGlu-gGlu-gGlu-gGlu-gGlu-gGlu-eLys; C-terminal NH2) [Compound 125]	EC50 CreLuc hNPY2R 0.5% hP	30.9
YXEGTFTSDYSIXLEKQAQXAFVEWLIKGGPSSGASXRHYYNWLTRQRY (Aib at 2, 13, 20, 37; K28 side chain: C20DA-gGlu-gGlu-gGlu-gGlu-gGlu-gGlu-eLys; C-terminal NH2) [Compound 118]	EC50 CreLuc hNPY2R 0.5% hP	6.2
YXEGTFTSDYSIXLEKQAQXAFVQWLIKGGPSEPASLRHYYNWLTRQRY (Aib at 2, 13, 20; K28 side chain: C20DA-gGlu-gGlu-gGlu-gGlu-gGlu-OEG-OEG; C-terminal NH2) [Compound 111]	EC50 CreLuc hNPY2R 0.5% hP	13.4
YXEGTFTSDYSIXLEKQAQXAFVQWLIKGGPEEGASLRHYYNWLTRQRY (Aib at 2, 13, 20; K28 side chain: C18DA-gGlu-gGlu-gGlu-gGlu-gGlu-gGlu-eLys; C-terminal NH2) [Compound 149]	EC50 CreLuc hNPY2R 0.5% hP	18.6
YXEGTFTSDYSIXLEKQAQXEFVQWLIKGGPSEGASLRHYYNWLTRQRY (Aib at 2, 13, 20; K28 side chain: C18DA-gGlu-gGlu-gGlu-gGlu-gGlu; C-terminal NH2) [Compound 141]	EC50 CreLuc hNPY2R 0.5% hP	11.8
YXEGTFTSDYSIXLEKQAQXAFVEWLIKGGPSSGESLRHYYNWLTRQRY (Aib at 2, 13, 20; K28 side chain: C20DA-gGlu-gGlu-gGlu-gGlu-gGlu-gGlu-eLys; C-terminal NH2) [Compound 127]	EC50 CreLuc hNPY2R 0.5% hP	13.2
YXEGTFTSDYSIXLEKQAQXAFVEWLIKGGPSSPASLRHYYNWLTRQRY (Aib at 2, 13, 20; K28 side chain: C20DA-gGlu-gGlu-gGlu-gGlu-gGlu-gGlu-eLys; C-terminal NH2) [Compound 95]	EC50 CreLuc hNPY2R 0.5% hP	20.6
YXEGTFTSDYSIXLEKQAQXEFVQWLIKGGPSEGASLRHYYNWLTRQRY (Aib at 2, 13, 20; K28 side chain: C18DA-gGlu-gGlu-gGlu-gGlu-gGlu-gGlu-eLys; C-terminal NH2) [Compound 153]	EC50 CreLuc hNPY2R 0.5% hP	18.9

Ref: patent US20240247080A1
